These measurements were taken from patent US9650379B2.

Target: HDAC6 human recombinant (Homo sapiens)
Sequence (Q9UBN7 whole entry): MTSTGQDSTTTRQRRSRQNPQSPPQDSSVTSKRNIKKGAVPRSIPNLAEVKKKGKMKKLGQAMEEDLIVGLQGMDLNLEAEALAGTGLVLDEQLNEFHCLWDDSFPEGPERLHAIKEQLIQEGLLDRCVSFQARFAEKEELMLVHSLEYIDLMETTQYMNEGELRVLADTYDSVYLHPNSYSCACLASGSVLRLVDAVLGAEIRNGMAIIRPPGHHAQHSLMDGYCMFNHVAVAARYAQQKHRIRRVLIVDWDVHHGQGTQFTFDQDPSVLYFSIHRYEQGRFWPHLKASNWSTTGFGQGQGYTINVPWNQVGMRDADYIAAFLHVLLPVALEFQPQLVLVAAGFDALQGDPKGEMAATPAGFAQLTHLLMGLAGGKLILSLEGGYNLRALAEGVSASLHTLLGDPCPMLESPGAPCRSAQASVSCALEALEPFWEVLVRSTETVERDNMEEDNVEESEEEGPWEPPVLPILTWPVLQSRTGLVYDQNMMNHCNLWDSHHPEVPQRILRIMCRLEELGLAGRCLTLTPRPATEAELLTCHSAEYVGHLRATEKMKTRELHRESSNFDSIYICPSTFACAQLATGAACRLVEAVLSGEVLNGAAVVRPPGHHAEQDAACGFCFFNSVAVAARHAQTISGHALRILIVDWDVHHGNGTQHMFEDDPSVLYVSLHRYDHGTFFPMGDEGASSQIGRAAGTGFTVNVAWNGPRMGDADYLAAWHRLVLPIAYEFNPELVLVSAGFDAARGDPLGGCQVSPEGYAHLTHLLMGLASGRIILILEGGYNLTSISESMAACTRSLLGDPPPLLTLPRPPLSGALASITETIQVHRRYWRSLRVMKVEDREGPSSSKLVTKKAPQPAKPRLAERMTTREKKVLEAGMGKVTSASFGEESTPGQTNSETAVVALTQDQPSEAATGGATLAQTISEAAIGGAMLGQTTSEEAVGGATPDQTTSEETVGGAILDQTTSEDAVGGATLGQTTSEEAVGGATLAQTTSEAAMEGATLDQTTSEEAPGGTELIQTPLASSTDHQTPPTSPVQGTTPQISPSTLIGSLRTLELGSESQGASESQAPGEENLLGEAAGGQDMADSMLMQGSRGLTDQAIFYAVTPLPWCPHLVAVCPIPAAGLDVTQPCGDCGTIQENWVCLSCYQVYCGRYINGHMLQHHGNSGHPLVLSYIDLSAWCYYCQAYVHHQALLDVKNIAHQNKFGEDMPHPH
Assay: Inhibition of HDAC6 activity (fluorimetric assay)
Details: test concentrations 0.1, 1, 10, 100 and 1000 nM; 37° C., 60 minutes
Experimental: Assays were performed using a HDAC1 fluorimetric drug discovery assay kit (Enzolifesciences: BML-AK511) and a HDAC6 human recombinant (Calbiochem: 382180). […] The treated assay mixture was allowed to react at 37° C. for 60 minutes, and then was treated with a developer and allowed to stand at 37° C. for 30 minutes, followed by quantification of the fluorescence.
quantity-measured: log10(IC50) (log10 of the value in nM)

compound | quantitative-readout
O=C(NO)c1ccc(Cn2ccc3cc(C4CCN(Cc5ccccn5)CC4)cnc32)cc1 [Compound 844] | 0.53
CC(C)(F)CN1CC=C(c2cnc3c(ccn3Cc3ccc(C(=O)NO)cc3)c2)CC1 [Compound 617] | 0.95
CC(C)(F)CN1CCN(Cc2ccc(-c3ccnc4c3ccn4Cc3ccc(C(=O)NO)cc3)cc2)CC1 [Compound 763] | 2.48
COc1ccc(CN2CC3(CCN(c4cnc5c(ccn5Cc5ccc(C(=O)NO)cc5)c4)CC3)C2)cc1 [Compound 1125] | 0.26
COc1ccc(CN2CCC3(CCN(c4ccnc5c4ccn5Cc4ccc(C(=O)NO)cc4)CC3)C2)cc1 [Compound 1021] | 1.15
C[C@@H]1CN(c2cnc3c(ccn3Cc3ccc(C(=O)NO)cc3)c2)C[C@H](C)N1Cc1ncccn1 [Compound 1005] | 0.74
CC(C)(F)CN1CCC(c2ccnc3c2ccn3Cc2ccc(C(=O)NO)cc2)CC1 [Compound 636] | 0.90
O=C(NO)c1ccc(Cn2ccc3cc(C4CCN(Cc5noc(C(F)(F)F)n5)CC4)cnc32)cc1 [Compound 845] | 0.08
